Data origin: PubChem BioAssay (NCI)

System: HCT-15 colon
Protocol notes: NCI tumour cell line growth inhibition, 48 h
Readout: TGI (µM)
Numeric answer only, unit µM assumed.

Prompt line: Report measured TGI; entry is C=C(C)C(=O)O[C@H]1C[C@@]2(C)OC(=CC2=O)/C(C)=C\[C@H]2OC(=O)C(=C)[C@H]12
Response line: 3.29

Prompt line: Report measured TGI; entry is CC1=C2C(=O)[C@](C)(CO)C=C2C(=O)[C@](C)(O)C12CC2
Response line: 4.92

Prompt line: Report measured TGI; entry is CCn1c2ccc(/C=N/OCCCN(C)C)cc2c2cc(/C=N/OCCCN(C)C)ccc21
Response line: 3.96

---

System: U251 CNS
Bench note: report the call from active, inactive

Prompt line: Assay outcome for CNC(=O)c1cc(-n2ccc3cc(NC(=O)Nc4ccc(N5CCOCC5)c(C(F)(F)F)c4)ccc32)ccn1 : what was it?
Response line: inactive

Prompt line: Assay outcome for CC(=O)Nc1ccc(NC(=O)Nc2cccc(-c3nc(-c4ccc(NC(=O)c5cccs5)cc4Cl)no3)c2)cc1C(F)(F)F : what was it?
Response line: active

Prompt line: Assay outcome for CCn1c2ccc(/C=N/OCCCN(C)C)cc2c2cc(/C=N/OCCCN(C)C)ccc21 : what was it?
Response line: inactive

Prompt line: Assay outcome for CCC(C)[C@H]1OC(=O)[C@H](C(C)C)N(C)C(=O)[C@@H](C(C)C)OC(=O)[C@H](C(C)C)N(C)C(=O)[C@@H](C(C)CC)OC(=O)[C@H](C(C)C)N(C)C1=O (some centres undefined) : what was it?
Response line: inactive

---

Tested on: SF-295 CNS
Protocol notes: NCI tumour cell line growth inhibition, 48 h
Hi there, I'd appreciate the recorded TGI for every entry that follows.
Numeric answer only, unit µM assumed.

Prompt line: Report measured TGI; entry is C=C(C)C(=O)O[C@H]1C[C@@]2(C)OC(=CC2=O)/C(C)=C\[C@H]2OC(=O)C(=C)[C@H]12
Response line: 18.5

Prompt line: Report measured TGI; entry is CNC(=O)c1cc(-n2ccc3cc(NC(=O)Nc4ccc(N5CCOCC5)c(C(F)(F)F)c4)ccc32)ccn1
Response line: 3.24

Prompt line: Report measured TGI; entry is CCC(C)[C@H]1OC(=O)[C@H](C(C)C)N(C)C(=O)[C@@H](C(C)C)OC(=O)[C@H](C(C)C)N(C)C(=O)[C@@H](C(C)CC)OC(=O)[C@H](C(C)C)N(C)C1=O (some centres undefined)
Response line: 1.53

Prompt line: Report measured TGI; entry is CC(=O)Nc1ccc(NC(=O)Nc2cccc(-c3nc(-c4ccc(NC(=O)c5cccs5)cc4Cl)no3)c2)cc1C(F)(F)F
Response line: 2.99

---

Test system: SF-268 CNS
Protocol notes: NCI tumour cell line growth inhibition, 48 h
Hi there, I'd appreciate the recorded GI50 for every entry that follows.

Prompt line: Look up and report GI50, with SF-268 CNS as system, for CCn1c2ccc(/C=N/OCCCN(C)C)cc2c2cc(/C=N/OCCCN(C)C)ccc21
Response line: 3.69 µM

Prompt line: Look up and report GI50, with SF-268 CNS as system, for CCC(C)[C@H]1OC(=O)[C@H](C(C)C)N(C)C(=O)[C@@H](C(C)C)OC(=O)[C@H](C(C)C)N(C)C(=O)[C@@H](C(C)CC)OC(=O)[C@H](C(C)C)N(C)C1=O (some centres undefined)
Response line: 0.726 µM

Prompt line: Look up and report GI50, with SF-268 CNS as system, for C=C(C)C(=O)O[C@H]1C[C@@]2(C)OC(=CC2=O)/C(C)=C\[C@H]2OC(=O)C(=C)[C@H]12
Response line: 1.99 µM

Prompt line: Look up and report GI50, with SF-268 CNS as system, for CNC(=O)c1cc(-n2ccc3cc(NC(=O)Nc4ccc(N5CCOCC5)c(C(F)(F)F)c4)ccc32)ccn1
Response line: 27.2 µM
